- Target Entity: T1, UNK ZnF1-3 (human, UniProt Q9C0B0 31-174)
- T1 sequence: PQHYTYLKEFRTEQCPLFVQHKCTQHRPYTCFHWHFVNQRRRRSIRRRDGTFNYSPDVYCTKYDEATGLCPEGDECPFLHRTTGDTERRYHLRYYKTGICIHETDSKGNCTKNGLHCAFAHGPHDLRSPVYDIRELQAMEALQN
- Method: nsRBNS (natural sequence RNA bind-n-seq); RBNS binding buffer (assumed for nsRBNS): 25 mM Tris pH 7.5, 150 mM KCl, 3 mM MgCl2, 0.01% Triton X-100, 500 ug/ml BSA, 20 U/ml SUPERase-In, 4 C; UNK is unkempt and MSI1 is Musashi-1; names of the RNAs are library labels; protein concentration not given here; high values mean tight binding
In all, about 24,000 sequences were measured (“enrichment r”: median about 0.99, highest 2% from about 3.7 on). Not all results are given here.
Quantity Kind: binding signal (enrichment R)

1. chr16:45382771:45382772:-_ENSMUSG00000022661_ENSMUST00000163230|mus_mus|motif|central (ssRNA) RNA: GGGAGUUCUACAGUCCGACGAUCGAGAGUGUUAUUGUGGGCCCAAUGGAUAGGGAGAGCAUGCUUUUGUAAAGAUGUGAACGGCUCACUAAGACUAACAAUAUUGCCUAAGUGCUAUAAAAAUAAGUUAAAUGGACACAUUACCAACAGAGGAUUGAGCAUCA; 2.47
2. chr18:56819859:56819860:+_ENSG00000166562_ENST00000588875|hu_mus|FALSE|FALSE (ssRNA) RNA: GGGAGUUCUACAGUCCGACGAUCAACCUUGAUUACUCUGUGAACUAUCGGAAUGUCUCUUCCUUCAACCUUAAAAACAACUAUUUCACCAGCUCUGAUGGGGUCCUCCCGGAAAUUCGUGAGGAACAGCAGAUCUCCUCUGUGCAACAGAGGAUUGAGCAUCA; 0.758
3. chr3:179287964:179287965:+_ENSG00000136518_ENST00000429709|hu_hu|hu_hu_hu_mus_True|28_38 (ssRNA) RNA: GGGAGUUCUACAGUCCGACGAUCCUUGAGUGGUGAGAUGGCCUCCAUGUUCUCCCUGGGCACGCGGAGGGCAUUGGUGUCUAUGUAGUAGGUGGGCCCGCCUUGUUUGCCUUUAUCACCAUCAAUCUCCAUCAUUGUACUUCCCAACAGAGGAUUGAGCAUCA; 0.581
